- assay_comment: GSK2256098 pharmacokinetics, whole blood, Day 15
- Type: in vivo, human
- conditions_used: human, oral; GSK2256098 250 mg (n = 10) with trametinib, whole blood, Day 15; read-out: AUC(0–τ), Geometric mean (%CV)
measure_name: AUC
Reply with the number, then its unit.

Input CONC(=O)c1ccccc1Nc1cc(Nc2cc(C)nn2C(C)C)ncc1Cl . Output AUC: 5470 ng·h/mL

* * *

- assay_comment: GSK2256098 pharmacokinetics, dry blood spot, Day 15
- Assay type: in vivo
- conditions_used: human, oral, GSK2256098 250 mg (n = 6) with trametinib, read-out: AUC(0–τ), Geometric mean (%CV)
measure_name: AUC (ng·h/mL)
Numbers only, in ng·h/mL.

Input CONC(=O)c1ccccc1Nc1cc(Nc2cc(C)nn2C(C)C)ncc1Cl . Output AUC: 4980
